Target: human constitutive proteasome (Beta5) (Homo sapiens (Human), UniProt P28074)
Test: Determination of Beta5 activity (fluorescence intensity assay, Suc-LLVY-AMC)
Assay type: biochemical
Details: incubation for 20 minutes
Listed here: items and their measured IC50.

{"molecule": "C/C=C(/C)C(=O)N(CC)CC(=O)N[C@@H](Cc1ccc(C)cc1C)B(O)O", "IC50": "> 5 µM"}
{"molecule": "C=CC(=O)N(CC(=O)N[C@@H](Cc1ccc(C)cc1C)B(O)O)c1ccc(F)cc1", "IC50": "0.5 to 5 µM"}
{"molecule": "C=CC(=O)N(C)CC(=O)N[C@@H](Cc1ccc(C)c(C)c1)B(O)O", "IC50": "> 5 µM"}
{"molecule": "C=CC(=O)N(CC)CC(=O)N[C@@H](Cc1ccccc1)B(O)O", "IC50": "> 5 µM"}
{"molecule": "C=CC(=O)N1c2ccccc2CC1C(=O)N[C@@H](Cc1ccc(C)cc1C)B(O)O (some centres unmarked)", "IC50": "0.5 to 5 µM"}
{"molecule": "CC#CC(=O)N(CC)CC(=O)N[C@@H](Cc1ccc(C)cc1C)B(O)O", "IC50": "0.5 to 5 µM"}
{"molecule": "C=CC(=O)N(CC)CC(=O)N[C@@H](Cc1ccc(C)cc1C)B(O)O", "IC50": "> 5 µM"}
{"molecule": "C=C(C)C(=O)N(CC)CC(=O)N[C@@H](Cc1ccccc1)B(O)O", "IC50": "> 5 µM"}

* * *

Biological target: human immuno proteasome (LMP7) (Homo sapiens (Human))
Test: Determination of LMP7 activity (fluorescence intensity assay, Suc-LLVY-AMC)
Format: biochemical
Conditions: LMP7 versus Beta5, incubation for 20 minutes

{"compound": "C=CC(=O)N(CC(=O)N[C@@H](Cc1ccc(C)cc1C)B(O)O)C(C)C [Compound No. 27]", "Selectivity LMP7 vs Beta5": "+++ (70 ≤ 100)"}
{"compound": "C=CC(=O)N(CC(=O)N[C@@H](Cc1ccc(C)c(C)c1)B(O)O)c1ccccc1 [Compound No. 17]", "Selectivity LMP7 vs Beta5": "+++ (70 ≤ 100)"}

* * *

Target: human immuno proteasome (LMP7) (Homo sapiens (Human), UniProt P28062)
Test: Determination of LMP7 activity (fluorescence intensity assay, Suc-LLVY-AMC)
Type: biochemical
Conditions: incubation for 20 minutes
pIC50: −log10 of the molar value.
Quick list: pIC50 per entry.
reported-property: pIC50

{"molecule": "C=CC(=O)N1c2ccccc2CC1C(=O)N[C@@H](Cc1ccc(C)cc1C)B(O)O (stereo partly shown)", "value-measured": "> 7.30"}
{"molecule": "C#CC(=O)N(C)CC(=O)N[C@@H](Cc1ccc(C)cc1C)B(O)O", "value-measured": "> 7.30"}
{"molecule": "Cc1ccc(C[C@H](NC(=O)CN(C)C(=O)/C=C/Cl)B(O)O)c(C)c1", "value-measured": "> 7.30"}
{"molecule": "C=CC(=O)N(CC)CC(=O)N[C@@H](Cc1ccc(Cl)cc1)B(O)O", "value-measured": "6.30 to 7.30"}

* * *

Biological target: human immuno proteasome (LMP7) (Homo sapiens (Human))
Assay: Determination of LMP7 activity (fluorescence intensity assay, Suc-LLVY-AMC)
Format: biochemical
Conditions: incubation for 20 minutes
pIC50: −log10 of the molar value.

{"molecule": "CCN(CC(=O)N[C@@H](Cc1ccc(C)cc1C)B(O)O)C(=O)C=C(C)C [Compound No. 24]", "pIC50": "6.30 to 7.30"}
{"molecule": "C/C=C(/C)C(=O)N(CC)CC(=O)N[C@@H](Cc1ccc(C)cc1C)B(O)O [Compound No. 21]", "pIC50": "6.30 to 7.30"}
{"molecule": "C=CC(=O)N1CCC[C@H]1C(=O)N[C@@H](Cc1ccc(C)cc1C)B(O)O [Compound No. 58]", "pIC50": "5.30 to 6.30"}
{"molecule": "C=CC(=O)N(CC(=O)N[C@@H](Cc1ccc(C)cc1C)B(O)O)c1cccc(F)c1 [Compound No. 4]", "pIC50": "> 7.30"}

Attribution: patent US10669289B2
